Experiment: clinical
Conditions: human, in vivo, 30 mg, Cmax
ASSAY_METRIC: Cmax (ng/mL)
Just the number please, in ng/mL, no unit attached.

q: Quick one: Cmax of `CO[C@H](C(=O)NO)[C@@H](CC(C)C)C(=O)N[C@H](C(=O)Nc1ccccn1)C(C)(C)C` ?
a: 315

---

Test: clinical
Conditions: human, in vivo, 30 mg, Tmax
ASSAY_METRIC: Tmax (h)
Just the number please, in h, no unit attached.

q: Quick one: Tmax of CO[C@H](C(=O)NO)[C@@H](CC(C)C)C(=O)N[C@H](C(=O)Nc1ccccn1)C(C)(C)C [BB-3644] ?
a: 1.5
